test: yeast display, Sf9 membrane polyspecificity reagent, FACS + sequencing; frameworks hold sequencing errors
recorded endpoint: polyreactivity (PSR sort gate)

Known results for sequences:
Read the entry QVQLVESAGGLVQAGGSLRLSCAPSGSILASNAMGCYRQAPGKDRELVSAITTSGGSTYYADYVKGRFTISLDNAKNTVYLQMNSLKPEDTAVYYCNAEYSRGRWLRYGYWGQGTQVTVSS and write its reported polyreactivity (PSR sort gate).
high polyreactivity

Read the entry QVQLVESGGGLVQAGGSLRLSCAASGSIFRSYAMGWYRQAPGKERELVAAITSSSGSTYYADSVKGRFTISRDNAKNTVYLQMNSLKPEDTAVYYCNAPYWKSRFRAYYHWGQGTQVTVSS and write its reported polyreactivity (PSR sort gate).
high polyreactivity

Read the entry QVQLVESGGGLVQAGGSLRLSCAASGSILQHYAMGWYRQAPGKERELVASISWTGGSTYYADSVKGRFTISRDNAKNTVYLQMNSLKPEDTAVYYCAARRYRYYSRGSWGQGTQVTVSS and write its reported polyreactivity (PSR sort gate).
high polyreactivity

Read the entry QVQLVESGGGLVQAGGSLRLSCAASGSTYHKDAMAWYRQAPGKERELVAAISNGGRTYYADSVKGRFTISRDNAKNTVYLKRNSLKPEATAVYYCAAVPRRGWDIRRYDSWGQGTQVTVSS and write its reported polyreactivity (PSR sort gate).
high polyreactivity

Read the entry QVQLVESGGGLVQAGGSLRLSCAASGFTFYLYAMGWYRQAPGKERELVAAITWSGGRTYYADSVKGRFTISRDNAKNTVYLQMNSLKPEDTAVYYCAAVVRKQLSAPSDYWGQGTQVTVSS and write its reported polyreactivity (PSR sort gate).
high polyreactivity

Read the entry QVQLVESRGGLVQAGGSLRLSCAASGYIINAYARGWYRQAPGKERELVAAISWSSDSTYYADSVKGRFTISRDIAKNTVYLQMNSLKPEVTAVYYCAAPYITPYGTYVFSSDYWGQGTQVTVSS and write its reported polyreactivity (PSR sort gate).
low polyreactivity

Read the entry QVQLVESGGGLVQAGGSLRLSCAASGRIFWPYAMGWYRQAPGKERELVAAITSGGSTYYADSVKGRFTISRDNAKNTVYLQMNSLKPEDTAVYYCAKRSSGVSVPVAYGGIKRYNSWGQGTQVTVSS and write its reported polyreactivity (PSR sort gate).
low polyreactivity

Read the entry QVQLVESGGGLVQAGGSLRLSCAASGSTFQTYAMGWYRQAPGKERELVAAISRRSGSTYYADSVKGRFTISRDNAKNTVYLQMNSLKPEDTAVYYCAARYVSRRFLGYYYWGQGTQVTVSS and write its reported polyreactivity (PSR sort gate).
high polyreactivity

Others:
Read the entry QVQLVESGGGLVQAGGSLRLSCAASGSTFSYYAMGWYRQAPGKERELVAVISRGGSTNYADSVKGRFTISRDNAKNTVYLQMNSLKPEDTAVYYCAAYVLPWRGRGQTEYGYWGQGTQVTVSS and write its reported polyreactivity (PSR sort gate).
low polyreactivity

Read the entry QVQLVESGGGLVQAGGSLRLSCAASGFTFFSNAMGWYRQAPGKERELVAAITSSGGSTYADSVKGRFTISRDNAKNTVYLQMNSLKPEDTAVYYCAADAQAPPGGFKEYDYWGQGTQVTVSS and write its reported polyreactivity (PSR sort gate).
low polyreactivity

###

test: yeast display, Sf9 membrane polyspecificity reagent, FACS + sequencing; frameworks hold sequencing errors
recorded endpoint: polyreactivity (PSR sort gate)

Read the entry QVQLVESGGGLVQAGGSLRLSCAASGITFHGYAMGWYRQAPGTERELVAAISDSGSSTYYADSVKGRFTISRDNAKNTVYLQMNSLKPEDTAVYYCAAVSGFYDQYDYWGQGTQVTVSS and write its reported polyreactivity (PSR sort gate).
low polyreactivity

Read the entry QVQLVESGGGLVQAGGSLRLSCAASGIIFARNTMGWYRQAPGKERELVAAISTRGTTSYYADSVKGRFTISRDNAKYTVYLQMNSLKPEDTAVYYCAAVRVHTDRYNYWGQGTQVTVSS and write its reported polyreactivity (PSR sort gate).
high polyreactivity

Read the entry QVQLVESGGGLVQAGGSLRLSCAASGFIFRYYAMGWYRQAPGKERELVAAISWSGSRTYYADSVKGRFTISRDNAKNTVYVQMNSLKPEDTAVYYCAADGNVGVTKGRFDYWGQGTQVTVSS and write its reported polyreactivity (PSR sort gate).
high polyreactivity

Read the entry QDQLVESGGGLVQAGGSLRLSCAASGNTFYVNVMGWYRQPPGKVREFVAAISTRGVSTSYADSVKGRFTISRDIAMNTVYLQMNSLKPEDTAVYYCAASFRRPEPKGTTYGYWGQGTQVTVSS and write its reported polyreactivity (PSR sort gate).
high polyreactivity

Read the entry QVQLVESGGGLVQAGGSLRLSCAASGRILRSNAMGWYRQAPVKERELVATISQRGGSTYADSVKGRFTISRDNAKNTVYLQMNSLKPEDTAVYYCNVGVPIGGFMSYWGGDYWGQGTQVTVSS and write its reported polyreactivity (PSR sort gate).
low polyreactivity

Others:
Read the entry QVQLVESGGGLVQAGGSLRLSCAASGLTFSKYAMGWYRQAPGKERELVAAINRSDGGTYYADSVKGRFTISRDNAKNTVYLQMNSLKPEDTAVYYCNAVVLYGWYGRRYSSRLDYWGQGTQVTVSS and write its reported polyreactivity (PSR sort gate).
high polyreactivity

Read the entry QVQLVESGGGLVQAGGSLRLSCAASGSTFFTNAMGWYRQAPGKERELVATITWSGGSTYADSVKGRFTISRDNAKNTVYLQMNSLKPEDTAVFYCAAESSSYWGDQGGALWLYDYWGQGTQVTVSS and write its reported polyreactivity (PSR sort gate).
low polyreactivity

Read the entry QVQIEESGGGLVQAGGSLRLICAASGRIFLPYVMGWYRQAPGKERELVATITFGRSTTYADSVKGRFTISRDNAKNTVYLQMNCLKPEDTAFYYCNALSALAVEDGYWGHGTQVTVSS and write its reported polyreactivity (PSR sort gate).
low polyreactivity

Read the entry QVQLVESGGGLVQGGGSLRLSCAASGSTFGRYAMGWYRQAPGKEREFVAGITGRGGSTYYADSVKGRFTISRDNAKNTVYLQMNSLKPQDTAVYYCAAGYRVGYLRAGDYWGQGTQVTVSS and write its reported polyreactivity (PSR sort gate).
high polyreactivity

Read the entry QVHLVESGGGLVQAGGSLRLSCAASGLTFYPNAMGWYRQAPGKERELVAAITYSTGSTYADSVKGRFTITRDNAKNTVFLQMNSLKPEDSAVYDCAAYWSRVRYGMNYWGQGTQVTVSS and write its reported polyreactivity (PSR sort gate).
high polyreactivity

Read the entry QVHHVESGGGLVQARGSLRLSCAASGFIFSSYTMGWYRQAPGKERELLAAITSRGGSTYYADSVKGRVTISRDTAKNTVYLQMNSLKAEDTAVYYCNARRIPYSPYGVHEGNYWGQGTQVTVSS and write its reported polyreactivity (PSR sort gate).
high polyreactivity

###

assay: yeast display, Sf9 membrane polyspecificity reagent, FACS + sequencing; frameworks hold sequencing errors
recorded endpoint: polyreactivity (PSR sort gate)

Known results for sequences:
Read the entry QVQLVESGGGLVHAGGSLRLSCAASGSTFHTYDMGWYRKAPWKERELVAAITSRDSTHYADSVKGCFTISRDNAKNTVYLQMNSLKPEDTAVYYCAASAPYLYYRSAYYYWGQGTQVTVSS and write its reported polyreactivity (PSR sort gate).
low polyreactivity

Read the entry QDQLVESGGGLVQAGGSLRISCAASGSIFTYNAMGWYREAPGKERELVAAINTSGSTNYADSVKGRFTISRDNAKNTVYLQKNSLKPEDTAVYYCAADYPYWRRPYSRYGYWGQGTQVTVSS and write its reported polyreactivity (PSR sort gate).
low polyreactivity

Read the entry QVQLVESGGGLVQAGGSLRLSCAASGRTFPWYGKGWYRPAPGKERELVAAISRTGGNTYYADSVKGRFTISRDNAKNTVYLQMNSLKPEDTAVYYCNAGYYSNRYYFYDYGYWGQGTQVTVSS and write its reported polyreactivity (PSR sort gate).
high polyreactivity

Read the entry QVQLVDSGGGLVQAVGSLRLSCAASGRTFRRYAMGWYRQAPGKERELVAAISRSGGSTYYADSVNGRFTISRDNAKNTVYLQMNSLKPEDTAVYYCAAGIWSKLVEPFDYCGQGTQVTVSS and write its reported polyreactivity (PSR sort gate).
high polyreactivity

Read the entry QVQLVESGGGLVQAGGSLRLSCAASGSTFSANDMGWDRQAPGKEREFVAAITTSDDSTYYADSVKGRYTISRDNAKNTVYLQMNSLKPEDTAVYYCNAYSGYSFFGLCFFYKYDYWGQGTQVTVSS and write its reported polyreactivity (PSR sort gate).
low polyreactivity

Others:
Read the entry QVQLVESGGGLVQAGGSLRLSCAASGLTFRYNAMGWYRQAHGKERELVARISRNGGRTYYADSVKGRFTISRDNAKNTVYLQMNSLKPEDSAVYYCNVVYFVTTSPGYDYWGQGTKVTVSS and write its reported polyreactivity (PSR sort gate).
high polyreactivity

Read the entry HVQLVESGGGLVQAGGSLRLSCAASGSTFKRNTMGWYRQAPGKERELVAAISRSGGSTYYADSVKGRFTISRDNAKNTVYLQMNSLKPEDTAVYYCNAYVSSYVGSRSYGLSPYDYWGQGTQVTVSS and write its reported polyreactivity (PSR sort gate).
high polyreactivity

Read the entry QVQLVQSGGGLVQAGGRLSLSCAASGRTIDTYAMGWYRQAPGKERELVAAITRRTYYADSVKGRFTISRDNAKNSVYLQMNSLKPEDTAVDYCAVRFLRKWTSSRHYGYWGQGTQVTLSS and write its reported polyreactivity (PSR sort gate).
high polyreactivity

Read the entry QVQLVESGGGLDQAGGSLRLSCAASGRNYGLYAMGWYIQAPWKERELVAAITRTASTNYADSVNGRFTISRDNAKNTVYLQMNSLKPEDTAVYYCAAESWYPSDLWYTYEYWGQGTQVTVSS and write its reported polyreactivity (PSR sort gate).
low polyreactivity

Read the entry QVQLVESGGGLVQAGGSLRLSCAASGSTVENNVMGWYRQAPGQERELVATITWGDGSTSYADSVKGRFTISRDNAKNTVYLKMNSLKTEVTAVYYCDAVDRIGYGKNQDHDYWGQGTQVTVSS and write its reported polyreactivity (PSR sort gate).
low polyreactivity

Read the entry QVQLVESGGGLVQAGGSLRLSCAASGSTFRKYVMGWYRQAPGKERELDAGITSRGGSTYYADSVKGRFTISRDNAKNTVYLQMNSLKPEDSAVYYCAKRAYGTALYRGYGYWGQGTQVPVSS and write its reported polyreactivity (PSR sort gate).
low polyreactivity

Just for reference, the nanobody polyreactivity screen of Harvey et al. (2022) is where these values come from.
